# ASSAY SUMMARY: qHTS assay to identify small molecule antagonists of the sonic hedgehog signaling (Shh) pathway - cell viability counter screen (AID 1259367); further: on the % scale 0 is the no-effect control and ±100 the full control effect; nearly all actives have a fitted effect of over 55% in size
# MEASUREMENT PARAMETERS: NIH/3T3 Gli1-Luc viability, CellTiter-Fluor, 24 h; series mostly up to 92.4 µM
Results filed as inconclusive are left out. Activity calls are given as the source filed them. The call rests on the fitted dose curve; in most records, active means well fitted cell-killing curve with a large enough effect in the repeat runs; inconclusive means weak or mixed curves, or effect the other way; inactive means no such curve, though single readings can be large or run the other way.
MEASURED PROPERTY: viability change, negative = cytotoxic

Count: 6. Required value per item: viability change, negative = cytotoxic.
1. COc1cc2ncnc(Nc3cccc(Cl)c3)c2cc1OC
2. O=C(O)CN(CCCN(CC(=O)O)CC(=O)O)CC(=O)O
3. O=C(O)C[C@H](O)C[C@H](O)/C=C/c1c(C2CC2)nc2ccccc2c1-c1ccc(F)cc1
4. C=CC(=O)OCCOC1C2CCC1C1CC=CC12 (stereo unspecified)
5. C=C[Si](C)(C)Cl
6. CCCCNc1ccc(NCCCC)c2c1C(=O)c1ccccc1C2=O

output:
1. -19.1% [at 19 µM] (inactive)
2. -4.5% [at 19 µM] (inactive)
3. -0.451% [at 19 µM] (inactive)
4. 5.82% [at 19 µM] (inactive)
5. -1.01% [at 8.39 µM] (inactive)
6. -12.9% [at 19 µM] (inactive)

src = PubChem BioAssay (Tox21)
